Data credit: the RNAGym collection of RNA variant scans (doi:10.7554/elife.90254)

Here, each record is paired with measured self-cleavage data.
B1: LINE1-full (parent)
chain: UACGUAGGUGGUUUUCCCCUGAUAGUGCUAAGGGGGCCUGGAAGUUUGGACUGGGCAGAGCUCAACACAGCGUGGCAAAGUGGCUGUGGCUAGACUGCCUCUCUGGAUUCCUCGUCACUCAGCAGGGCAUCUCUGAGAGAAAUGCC

Variants of: B1
Experiment: self-cleavage, relative activity (ratio to wild type); higher = more cleavage; in vitro, sequencing; the parent is a self-cleaving ribozyme
Respond using a number only.

Take a look at these entries with their results.
variant.identifier	quantitative.result
U39G U45C	1.82
A43G G86A	0.06
A43G A78U	1.86
U100A U115C	1.22
A22U A94U	0.17
A65G C68A	0.04

Requested read-out: self-cleavage. Entry: A43G U73C
1.3

Name the recorded self-cleavage for U108A A136U .
1.24

Which value of self-cleavage has been reported for A77G U91C in the records?
0

If you can, please state the reported self-cleavage value of U81A U134G .
0.65

Endpoint output: self-cleavage of A2G A92G . Value?
0

Bench note: what self-cleavage did A30U U46G show?
1.14

For A67U G75A , what is its reported self-cleavage?
0.09
